Source listed as PubChem BioAssay AID2060897.

- Tested on: 966289-007-R4-J1-PDC complex spheroid viability;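 note: spheroids exposed to agents for one week before readout; percent viability relative to DMSO vehicle control wells as 100%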
- experimentDescription: Anticancer human tumor 966289-007-R4-J1-PDC patient-derived pancreatic adenocarcinoma cell line growth inhibition [RAS]
- measurementSetup: second compound 0.316 µM; first compound 0.316 µM; active compounds read low
endpointLabel: viability, T/C (%)
Write the answer as a number in %, unit excluded.

CC(Nc1ccc2c(c1)OCCn1cc(N3C(=O)OCC3C(F)F)nc1-2)C(N)=O (stereo not given) + C=CC(=O)N1CCN(c2nc(OCC3CCCN3C)nc3c(F)c(-c4nc(N)cc(C)c4C(F)(F)F)c(Cl)cc23)C(C)C1    117
C[C@@H](NC(=O)c1ncnc(N)c1Cl)c1ncc(C(=O)Nc2cc(C(F)(F)F)c(Cl)cn2)s1 + C#Cc1c(F)ccc2cc(O)cc(-c3ncc4c(N5CC6CCC(C5)N6)nc(OCC56CCCN5CC(F)C6)nc4c3F)c12    124
Cc1nc(N2CCC3(CC2)COC(C)C3N)c(CO)nc1Sc1ccnc(N)c1Cl (stereo not given) + C#Cc1c(F)ccc2cc(O)cc(-c3ncc4c(N5CC6CCC(C5)N6)nc(OCC56CCCN5CC(F)C6)nc4c3F)c12    115
C=CC(=O)Nc1cc(Nc2nccc(-c3cn(C)c4ccccc34)n2)c(OC)cc1N(C)CCN(C)C + C=CC(=O)N1CCN(c2nc(OCC3CCCN3C)nc3c(F)c(-c4nc(N)cc(C)c4C(F)(F)F)c(Cl)cc23)C(C)C1    84.6

Pending compound:
Qu. Which viability, T/C value is on record for NC1c2ccccc2OC12CCN(c1cnc3c(N4CCCc5ncccc54)n[nH]c3n1)CC2 (stereo not given) + C=CC(=O)N1CCN(c2nc(OCC3CCCN3C)nc3c(F)c(-c4nc(N)cc(C)c4C(F)(F)F)c(Cl)cc23)C(C)C1 ?
Ans. 107
